Each recorded value in this set is attributed to patent US9884806B2.

# ASSAYED TARGET: first bromodomain (BrD1) of human BRD4 (Homo sapiens, UniProt O60885)
# Construct: the first bromodomain (BrD1) of human BRD4; poly-His (cleaved yes)
# PROTOCOL DESCRIPTION: Fluorescence anisotropy binding assay (competition with FITC-labeled MS417 probe)
# CONDITION DESCRIPTION: FITC-MS417 probe 80 nM, PBS pH 7.4, 1 hour, 25° C., read-out: BRD4_1 IC50
Hi there, I'd appreciate the recorded IC50 for every entry that follows.

## Input Report measured IC50; entry is `CC1=C(Nc2ccc(Nc3ccccc3C)cc2Cl)CCCC1=O`
## Output < 1 µM

## Input Report measured IC50; entry is `CC1=C(Nc2ccc(C(=O)N(C)c3ccccc3)cc2)CCC1=O`
## Output > 10 µM

## Input Report measured IC50; entry is `CC1=C(Nc2cc(NCc3ccccc3C)ccc2Cl)CCCC1=O`
## Output < 1 µM

## Input Report measured IC50; entry is `CC1=C(Nc2ccc3cccnc3c2)CCCC1=O`
## Output 1 to 10 µM

## Input Report measured IC50; entry is `CC1=C(Nc2ccc(C(=O)Nc3cccc(C)c3)c(Cl)c2)CCC1=O`
## Output > 10 µM

====

# ASSAYED TARGET: first bromodomain (BrD1) of human BRD4 (Homo sapiens, UniProt O60885)
# Construct: the first bromodomain (BrD1) of human BRD4; poly-His (cleaved yes)
# PROTOCOL DESCRIPTION: Fluorescence anisotropy binding assay (competition with FITC-labeled MS417 probe)
# CONDITION DESCRIPTION: FITC-MS417 probe 80 nM, PBS pH 7.4, 1 hour, 25° C., read-out: BRD4_1 IC50
pIC50: −log10 of the molar value.
Hi there, I'd appreciate the recorded pIC50 for every entry that follows.

## Input Report measured pIC50; entry is `CC1=C(Nc2ccc(C(=O)Nc3cccc(F)c3)c(Cl)c2)CCC1=O`
## Output < 5.00

## Input Report measured pIC50; entry is `CC1=C(Nc2ccc3cc(C(=O)O)ccc3c2)CCCC1=O`
## Output 5.00 to 6.00

## Input Report measured pIC50; entry is `CC1=C(N[C@H]2CC[C@H](C(=O)Nc3ccccc3C)CC2)CCC1=O`
## Output < 5.00

## Input Report measured pIC50; entry is `COC(=O)c1ccc(NC2=CC(=O)CC2)cc1`
## Output 5.00 to 6.00

## Input Report measured pIC50; entry is `CC1=C(Nc2cc(NC(=O)c3ccccc3C)ccc2Cl)CCC1=O`
## Output > 6.00

## Input Report measured pIC50; entry is `CC1=C(Nc2cccc(NCc3ccccc3C)c2Cl)CCCC1=O`
## Output > 6.00

## Input Report measured pIC50; entry is `CC1=C(Nc2ncccc2Cl)CCCC1=O`
## Output 5.00 to 6.00

## Input Report measured pIC50; entry is `CC1=C(Nc2cccc(Nc3ccccc3C)c2Cl)CCCC1=O`
## Output > 6.00

## Input Report measured pIC50; entry is `CC1=C(Nc2cccc(C(=O)Nc3ccccc3)c2)CCC1=O`
## Output 5.00 to 6.00

====

# ASSAYED TARGET: BRD4_2 (Homo sapiens)
# Construct: contains two tandem bromodomains (BrD1 and BrD2)
# PROTOCOL DESCRIPTION: Fluorescence anisotropy binding assay (competition with FITC-labeled MS417 probe), BRD4_2
# CONDITION DESCRIPTION: FITC-MS417 probe 80 nM, PBS pH 7.4, 1 hour, 25° C.
READOUT: IC50

## Input Report measured IC50; entry is `COc1ccccc1NC(=O)c1ccc(NC2=C(C)C(=O)CCC2)c(Cl)c1`
## Output 1 to 10 µM

## Input Report measured IC50; entry is `CC1=C(Nc2cc(NCCc3ccccc3C)ccc2Cl)CCCC1=O`
## Output 1 to 10 µM

## Input Report measured IC50; entry is `COc1cccc(NC(=O)c2ccc(NC3=C(C)C(=O)CC3)cc2Cl)c1`
## Output > 10 µM

## Input Report measured IC50; entry is `CC1=C(Nc2ccc3cc(C(=O)O)ccc3c2Cl)CCCC1=O`
## Output 1 to 10 µM

## Input Report measured IC50; entry is `CC1=C(Nc2cccc(NC(=O)/C=C\C(=O)O)c2Cl)CCCC1=O`
## Output > 10 µM

## Input Report measured IC50; entry is `CC1=C(Nc2cccc(C(=O)Nc3ccc(C)cc3)c2)CCC1=O`
## Output > 10 µM

## Input Report measured IC50; entry is `CC1=C(Nc2cc(NC(=O)/C=C\C(=O)O)ccc2Cl)CCCC1=O`
## Output > 10 µM

## Input Report measured IC50; entry is `CC1=C(Nc2cc(NS(=O)(=O)C3CCCCC3)ccc2Cl)CCC1=O`
## Output 1 to 10 µM

## Input Report measured IC50; entry is `COc1cc(NC2=C(C)C(=O)CC2)ccc1C(=O)O`
## Output > 10 µM

## Input Report measured IC50; entry is `CC1=C(Nc2cc(NS(C)(=O)=O)ccc2Cl)CCC1=O`
## Output 1 to 10 µM

## Input Report measured IC50; entry is `CC1=C(Nc2ccc3cccnc3c2)CCCC1=O`
## Output 1 to 10 µM

## Input Report measured IC50; entry is `COc1ccc(NC(=O)c2ccc(Cl)c(NC3=C(C#N)C(=O)CCC3)c2)c(C)c1`
## Output > 10 µM

## Input Report measured IC50; entry is `CC1=C(Nc2ccc(C(=O)Nc3cccc4ccccc34)cc2C)CCC1=O`
## Output 1 to 10 µM

## Input Report measured IC50; entry is `CC1=C(Nc2cccc(C(=O)Nc3ccncc3)c2)CCC1=O`
## Output > 10 µM

## Input Report measured IC50; entry is `CC1=C(N[C@H]2CC[C@@H](C(=O)O)CC2)CCC1=O`
## Output > 10 µM

## Input Report measured IC50; entry is `COC(=O)c1cccc(NC(=O)c2ccc(Cl)c(NC3=C(C)C(=O)CCC3)c2)c1C`
## Output > 10 µM

## Input Report measured IC50; entry is `COc1ccc(C(=O)Nc2ccc(Cl)c(NC3=C(C)C(=O)CCC3)c2)cc1`
## Output > 10 µM

## Input Report measured IC50; entry is `COc1cc(C(=O)Nc2cccc3ccccc23)ccc1NC1=C(C)C(=O)CC1`
## Output 1 to 10 µM

====

READOUT: melting point

## Input Report measured melting point; entry is CC1=C(Nc2ccc3ncccc3c2)CCCC1=O [Example 01-54]
## Output 208 to 210 °C

## Input Report measured melting point; entry is CC1=C(Nc2ccc(S(=O)(=O)Nc3ccccn3)cc2)CCC1=O (hydrate or solvate) [Example 01-31]
## Output 230 to 233 °C

## Input Report measured melting point; entry is CC1=C(Nc2ccc3cccnc3c2)CCCC1=O [Example 01-57]
## Output 133 to 135 °C

## Input Report measured melting point; entry is COC(=O)c1ccc(NC2=C(C)C(=O)CC2)c(Br)c1 [Example 01-22]
## Output 155 to 158 °C

## Input Report measured melting point; entry is CC1=C(Nc2ccc(NC(=O)c3cccc4ccccc34)cc2Cl)CCCC1=O [Example 05-47]
## Output 245 to 247 °C

## Input Report measured melting point; entry is CC(=O)Nc1ccc(Cl)c(NC2=C(C)C(=O)CCC2)c1 [Example 01-47]
## Output 234 to 236 °C

## Input Report measured melting point; entry is CC1=C(Nc2cc(NCCc3ccccc3C)ccc2Cl)CCCC1=O [Example 05-73]
## Output 85 to 87 °C

## Input Report measured melting point; entry is CC1=C(Nc2ccccc2C(N)=O)CCC1=O [Example 01-18]
## Output 235 to 238 °C

## Input Report measured melting point; entry is COc1ccc(C(=O)Nc2ccc(Cl)c(NC3=C(C)C(=O)CCC3)c2)cc1 [Example 05-43]
## Output 190 to 195 °C

## Input Report measured melting point; entry is CC1=C(Nc2ccc3[nH]c(C(=O)O)cc3c2)CCCC1=O [Example 01-64]
## Output 310 to 315 °C

## Input Report measured melting point; entry is CC1=C(Nc2ccc3nccnc3c2)CCCC1=O [Example 01-60]
## Output 110 to 112 °C

## Input Report measured melting point; entry is COC(=O)c1ccc(Cl)cc1NC1=C(C)C(=O)CC1 [Example 01-24]
## Output 167 to 170 °C

## Input Report measured melting point; entry is CC1=C(Nc2ccc3ncncc3c2)CCCC1=O [Example 01-61]
## Output 215 to 216 °C

## Input Report measured melting point; entry is CC1=C(Nc2ccc(NC(=O)c3ccccc3C)cc2Cl)CCCC1=O [Example 05-48]
## Output 234 to 236 °C

## Input Report measured melting point; entry is CC1=C(Nc2cccc(NC(=O)c3cccc4ccccc34)c2Cl)CCCC1=O [Example 05-52]
## Output 178 to 180 °C

## Input Report measured melting point; entry is CC1=C(Nc2cc(NS(=O)(=O)Cc3ccccc3)ccc2Cl)CCC1=O [Example 05-54]
## Output 196 to 198 °C

## Input Report measured melting point; entry is CC1=C(Nc2cc(NC(=O)c3cccc4ccccc34)ccc2Cl)CCC1=O [Example 05-40]
## Output 243 to 245 °C

## Input Report measured melting point; entry is CC1=C(Nc2cc(C(=O)O)c3ccccc3c2)CCCC1=O [Example 01-52]
## Output 270 to 272 °C

## Input Report measured melting point; entry is CC1=C(Nc2ccc(C#N)cc2)CCC1=O (hydrate or solvate) [Example 01-07]
## Output 204 to 206 °C

## Input Report measured melting point; entry is COc1ccc(NC(=O)c2ccc(NC3=C(C)C(=O)CC3)c(I)c2)cc1 [Example 04-104]
## Output 222 to 224 °C

## Input Report measured melting point; entry is CC1=C(Nc2cccnc2)CCC1=O [Example 01-29]
## Output 133 to 135 °C

## Input Report measured melting point; entry is CC1=C(Nc2cccc(CC(=O)O)c2)CCCC1=O [Example 01-37]
## Output 203 to 207 °C

## Input Report measured melting point; entry is CC1=C(Nc2cc(C(=O)O)ccc2Br)CCCC1=O [Example 01-48]
## Output 265 to 267 °C

## Input Report measured melting point; entry is CC1=C(Nc2ccc(N)cc2Cl)CCCC1=O [Example 02-12]
## Output 156 to 158 °C

## Input Report measured melting point; entry is `CC1=C(Nc2cc(C(=O)O)ccc2C(F)(F)F)CCCC1=O`
## Output 209 to 212 °C

## Input Report measured melting point; entry is CC1=C(Nc2ccc3ccccc3c2)CCC1=O [Example 01-27]
## Output 248 to 250 °C

## Input Report measured melting point; entry is `COc1c(NC2=C(C)C(=O)CC2)cccc1C(=O)O`
## Output 220 to 223 °C

## Input Report measured melting point; entry is CC1=C(N[C@H]2CC[C@H](C(=O)O)CC2)CCC1=O (hydrate or solvate) [Example 01-33]
## Output 236 to 238 °C

## Input Report measured melting point; entry is CC1=C(N[C@H]2CC[C@@H](C(=O)O)CC2)CCC1=O (hydrate or solvate) [Example 01-34]
## Output 233 to 235 °C

## Input Report measured melting point; entry is CC1=C(Nc2ccc(NS(=O)(=O)C3CCCCC3)cc2Cl)CCCC1=O [Example 05-69]
## Output 230 to 232 °C

## Input Report measured melting point; entry is CC1=C(Nc2cccc(C(=O)O)c2)CCC1=O [Example 01-03]
## Output 236 to 238 °C

## Input Report measured melting point; entry is CC1=C(Nc2cc(C(=O)O)ccc2Cl)CCC1=O [Example 01-25]
## Output 272 to 275 °C

## Input Report measured melting point; entry is CC1=C(Nc2ccc3ccncc3c2)CCCC1=O [Example 01-56]
## Output 145 to 147 °C

## Input Report measured melting point; entry is CC1=C(Nc2cccc(S(N)(=O)=O)c2)CCC1=O (hydrate or solvate) [Example 01-45]
## Output 223 to 225 °C

## Input Report measured melting point; entry is CC1=C(Nc2cc(Nc3ccccc3C)ccc2Cl)CCCC1=O [Example 05-81]
## Output 165 to 168 °C

## Input Report measured melting point; entry is CC1=C(Nc2cc(N)ccc2Cl)CCC1=O [Example 02-15]
## Output 166 to 168 °C

## Input Report measured melting point; entry is CC1=C(Nc2cccc(NC(=O)C3CCCCC3)c2Cl)CCCC1=O [Example 05-51]
## Output 205 to 208 °C

## Input Report measured melting point; entry is CC1=C(Nc2cc(NS(=O)(=O)c3ccccc3C)ccc2Cl)CCC1=O [Example 05-57]
## Output 236 to 238 °C
